Each item that follows carries a reported GI50.
Test system: MOLT-4
ASSAY COMMENT: NCI tumour cell line growth inhibition, 48 h
Activity calls are given as the source filed them. Rule as the data show it: active = GI50 up to about 1.1 µM and inactive = higher.

The cases that follow already have their GI50 on record.
1. CC(=O)c1cccc(N2COC(C)(C)c3nc4ccccc4n3C2)c1
> 100 µM (inactive)
2. Cc1ccc(/N=N/c2c(O)ccc3cc(S(=O)(=O)O)cc(S(=O)(=O)O)c23)cc1
> 100 µM (inactive)
3. CC(=O)OC1CCn2nnc(COC(=O)NC(C)C)c21 (stereo unspecified)
> 100 µM (inactive)
4. O=C1CCCC(=O)N1n1c(Cc2ccc(Cl)cc2)n[nH]c1=O
> 100 µM (inactive)
5. COC(=O)C1=C(OC(=O)/C=C/c2ccccc2)C(C(=O)OC)[C@@]2(O)[C@@H](C(=O)OC)[C@H](C)C[C@@H]1[C@@H]2C(=O)OC (stereo partly specified)
> 100 µM (inactive)

Give MOLT-4 GI50 for COC(=O)Cc1cc(OC)c(OC)cc1Br > 100 µM (inactive)

Lab request: please report GI50 under test system MOLT-4 for O=C1C(NCCF)=C(Cl)C(=O)c2ncccc21 1.22 µM (inactive)
